TEST_METHOD_NOTES: Drug level in Sprague-Dawley rat CSF at 15 mg/kg/day, sc administered via infusion measured after 72 hrs post dose by LC-MS/MS analysis
Format: ADME, organism-based, Cerebrospinal fluid
CONDITION_PARAMETERS: read-out: Drug uptake
RECORDED_METRIC: concentration at 72 h (nM)
Record the value in nM, omitting the unit from your answer.

Which value of concentration at 72 h has been reported for COc1cccc(C(=O)N[C@H]2C[C@@](N)(C(=O)O)[C@@H]3[C@@H](C(=O)O)[C@@H]32)c1 in the records?
86.7

* * *

TEST_METHOD_NOTES: Drug level in Sprague-Dawley rat CSF at 5 mg/kg/day, sc administered via infusion measured after 72 hrs post dose by LC-MS/MS analysis
Format: ADME, organism-based, Cerebrospinal fluid
CONDITION_PARAMETERS: read-out: Drug uptake
RECORDED_METRIC: concentration at 72 h (nM)
Record the value in nM, omitting the unit from your answer.

Which value of concentration at 72 h has been reported for COc1cccc(C(=O)N[C@H]2C[C@@](N)(C(=O)O)[C@@H]3[C@@H](C(=O)O)[C@@H]32)c1 in the records?
25.2
